Value source: the supplement of paper PMC10057847

B1: library; the commonest letter at each place (parent)
chain: MKPVTLYDVAEYAGVSYQTVSRVVNQASHVSAKTREKVEAAMAELNYIPNRVAQQLAGKQSLLIGVATSSLALHAPSQIVAAIKSRADQLGASVVVSMVERSGVEACKAAVHNLLAQRVSGLIINYPLDDQDAIAVEAACTNVPALFLDVSDQTPINSIIFSHEDGTRLGVEHLVALGHQQIALLAGPLSSVSARLRLAGWHKYLTRNQIQPIAEREGDWSAMSGFQQTMQMLNEGIVPTAMLVANDQMALGAMRAITESGLRVGADISVVGYDDTEDSSCYIPPLTTIKQDFRLLGQTSVDRLLQLSQGQAVKGNQLLPVSLVKRKTTLAPNTQTASPRALADSLMQLARQVSRLESGQ

# Variants of: B1
# ASSAY METHOD TEXT: saturating output G-infinity (YFP) (log10 MEF); higher = higher reporter expression at saturating IPTG
# CONDITION SUMMARY: with IPTG
Could you label it y if measured saturating output G-infinity (log10) is 4 or higher, and n otherwise?

| MUTANT | LABEL VALUE |
| --- | --- |
| S97T F161V | y |
| K2R A92V R195P D278G | y |
| S70R N208Y | y |
| I83M | y |
| V80L I83M S97T | n |

Q: Threshold query (saturating output G-infinity (log10) >= 4) on I83M S97T
A: y
